These entries and their values trace back to patent US20190046552A1.

- Tested on: HCV from sera of patients infected with resistant strains
- Protocol Description: Capture fusion assay: THP-1 cells infected with patient serum, fused with Huh7.5, HCV RNA by PCR
- Assay type: cell-based
- Condition Description: Hepatitis C virus, five selected patient samples with NS5A mutations (Example 4, FIGS. 18A-18E); read-out: IC50 range
Metric Name: IC50

Ask: Look up and report measured IC50 for this entry: CO[C@H]1C(OP(=O)(OC[C@H]2O[C@@H](n3cnc4c(N)ncnc43)CC2O)SCOC(=O)OC(C)C)[C@@H](CO)O[C@H]1n1ccc(=O)[nH]c1=O (stereo partly shown) [Formula (IIa)]
Result: ≥ 1 nM
